assay: Pharmacokinetic profiles in monkeys after intravenous and oral administration; type: in vivo; settings: plasma; Monkey, iv dosing 1 mg/kg; read-out: Vss
Overview of reported Vd across a group of molecules:
REPORTED ENDPOINT: Vd (L/kg)

>>> measured_result("COc1ncc(-c2ccc3ncc(C#N)n3n2)cc1NS(=O)(=O)c1ccc(F)cc1F [Ex. 24]")
0.64
>>> measured_result("COc1ncc(-c2ccc3ncc(C#CCO)n3c2)cc1NS(=O)(=O)c1ccc(F)cc1F [Ex. 15]")
0.76
>>> measured_result("COc1ncc(-c2ccc3ncc(C#CCO)n3n2)cc1NS(=O)(=O)c1ccc(F)cc1F [Ex. 9]")
0.39

* * *

molecular target: PI3K p110β/p85α (h) (Homo sapiens, UniProt P42338); test: PI3K p110β/p85α (h) non-radioactive HTRF assay
Sequence (P42338 whole entry): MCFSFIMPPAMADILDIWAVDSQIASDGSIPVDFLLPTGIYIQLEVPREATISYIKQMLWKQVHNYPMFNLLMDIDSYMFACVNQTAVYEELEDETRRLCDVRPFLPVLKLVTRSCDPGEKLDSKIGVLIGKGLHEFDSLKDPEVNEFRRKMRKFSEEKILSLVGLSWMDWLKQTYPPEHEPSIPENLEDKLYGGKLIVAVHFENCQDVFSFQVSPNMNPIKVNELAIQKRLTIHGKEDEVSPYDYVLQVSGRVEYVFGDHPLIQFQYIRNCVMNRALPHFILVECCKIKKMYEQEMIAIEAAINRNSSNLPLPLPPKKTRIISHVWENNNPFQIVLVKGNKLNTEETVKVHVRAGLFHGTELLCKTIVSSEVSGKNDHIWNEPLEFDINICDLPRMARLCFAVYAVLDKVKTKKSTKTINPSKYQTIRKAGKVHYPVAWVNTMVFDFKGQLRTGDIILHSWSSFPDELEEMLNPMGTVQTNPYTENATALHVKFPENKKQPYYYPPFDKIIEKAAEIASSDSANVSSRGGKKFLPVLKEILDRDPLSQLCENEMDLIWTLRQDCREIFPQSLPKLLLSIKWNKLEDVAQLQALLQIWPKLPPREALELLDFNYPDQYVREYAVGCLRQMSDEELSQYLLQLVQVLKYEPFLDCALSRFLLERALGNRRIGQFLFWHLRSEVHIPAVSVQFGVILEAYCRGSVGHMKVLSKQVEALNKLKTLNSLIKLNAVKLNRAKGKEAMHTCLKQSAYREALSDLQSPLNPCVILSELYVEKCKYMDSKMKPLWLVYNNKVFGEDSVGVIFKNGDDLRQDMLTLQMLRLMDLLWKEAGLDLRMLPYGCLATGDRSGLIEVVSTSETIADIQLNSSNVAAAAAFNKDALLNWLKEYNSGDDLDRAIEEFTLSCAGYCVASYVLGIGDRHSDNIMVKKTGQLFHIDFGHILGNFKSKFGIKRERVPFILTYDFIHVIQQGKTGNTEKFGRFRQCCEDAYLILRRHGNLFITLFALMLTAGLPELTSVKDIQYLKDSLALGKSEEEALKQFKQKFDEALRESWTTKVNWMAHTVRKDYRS
Sequence (P27986 whole entry partner): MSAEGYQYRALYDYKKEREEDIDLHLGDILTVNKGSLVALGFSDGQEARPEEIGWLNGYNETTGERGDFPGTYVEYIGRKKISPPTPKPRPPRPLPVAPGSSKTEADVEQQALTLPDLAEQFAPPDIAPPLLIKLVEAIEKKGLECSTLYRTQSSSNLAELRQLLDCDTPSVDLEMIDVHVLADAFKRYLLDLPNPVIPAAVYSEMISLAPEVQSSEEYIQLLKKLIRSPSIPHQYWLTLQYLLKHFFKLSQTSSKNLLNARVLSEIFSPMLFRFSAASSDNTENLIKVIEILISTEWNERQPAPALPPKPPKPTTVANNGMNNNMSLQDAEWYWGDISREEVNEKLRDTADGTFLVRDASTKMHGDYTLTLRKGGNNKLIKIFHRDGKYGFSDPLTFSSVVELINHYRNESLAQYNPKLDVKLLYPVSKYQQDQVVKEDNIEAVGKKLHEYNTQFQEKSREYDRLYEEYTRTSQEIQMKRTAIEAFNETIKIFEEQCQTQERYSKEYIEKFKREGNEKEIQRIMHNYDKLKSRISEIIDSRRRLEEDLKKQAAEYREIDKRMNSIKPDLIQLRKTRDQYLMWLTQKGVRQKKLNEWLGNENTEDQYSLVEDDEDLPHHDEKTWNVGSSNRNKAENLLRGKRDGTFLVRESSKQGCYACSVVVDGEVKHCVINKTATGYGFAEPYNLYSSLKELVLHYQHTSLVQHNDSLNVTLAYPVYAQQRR
pIC50: −log10 of the molar value.
REPORTED ENDPOINT: pIC50

>>> measured_result("COc1ncc(-c2ccc3ncc(C#N)n3n2)cc1NS(=O)(=O)c1ccc(F)cc1F")
7.59
>>> measured_result("COc1ncc(-c2ccc3ncc(C#CC(C)O)n3c2)cc1NS(=O)(=O)c1ccc(F)cc1F (stereo not drawn)")
7.18
>>> measured_result("CC#Cc1cnc2ccc(-c3cnc(OC)c(NS(=O)(=O)c4ccc(F)cc4F)c3)cn12")
7.55
>>> measured_result("COc1ncc(-c2ccc3ncc(C#CCO)n3c2)cc1NS(=O)(=O)c1ccc(F)cc1F")
7.57
>>> measured_result("COc1ncc(-c2ccc3ncc(C#CCO)n3n2)cc1NS(=O)(=O)c1ccc(F)cc1F")
7.42
>>> measured_result("COc1ncc(-c2ccc3ncc(C#N)n3c2)cc1NS(=O)(=O)c1ccc(F)cc1F")
7.55

* * *

Overview of reported Cl/F across a group of compounds:
assay: Pharmacokinetic profiles in rats after intravenous and oral administration; assay type: in vivo; conditions: iv dosing 2 mg/kg
REPORTED ENDPOINT: Cl/F (L/h/kg)

>>> measured_result("C#Cc1cnc2ccc(-c3cnc(Cl)c(NS(=O)(=O)c4ccc(F)cc4)c3)nn12")
0.04
>>> measured_result("COc1ncc(-c2ccc3ncc(C#CCO)n3c2)cc1NS(=O)(=O)c1ccc(F)cc1F")
0.08
>>> measured_result("COc1ncc(-c2ccc3ncc(C#N)n3c2)cc1NS(=O)(=O)c1ccc(F)cc1F")
0.23
>>> measured_result("COc1ncc(-c2ccc3ncc(C#CCO)n3n2)cc1NS(=O)(=O)c1ccc(F)cc1")
0.10
>>> measured_result("C#Cc1cnc2ccc(-c3cnc(OC)c(NS(=O)(=O)c4ccc(F)cc4F)c3)nn12")
0.13
>>> measured_result("COc1ncc(-c2ccc3ncc(C#N)n3n2)cc1NS(=O)(=O)c1ccc(F)cc1F")
0.24
>>> measured_result("COc1ncc(-c2ccc3ncc(C#CC(C)O)n3n2)cc1NS(=O)(=O)c1ccc(F)cc1 (centres unmarked)")
0.07
>>> measured_result("COc1ncc(-c2ccc3ncc(C#CC(C)O)n3n2)cc1NS(=O)(=O)c1ccc(F)cc1F (centres unmarked)")
0.03

* * *

Overview of reported IC50 across a group of compounds:
molecular target: PI3K (p110δ/p85α) (h) (Homo sapiens, UniProt O00329); assay: PI3K p110δ/p85α (h) non-radioactive HTRF assay
Sequence (O00329 whole entry): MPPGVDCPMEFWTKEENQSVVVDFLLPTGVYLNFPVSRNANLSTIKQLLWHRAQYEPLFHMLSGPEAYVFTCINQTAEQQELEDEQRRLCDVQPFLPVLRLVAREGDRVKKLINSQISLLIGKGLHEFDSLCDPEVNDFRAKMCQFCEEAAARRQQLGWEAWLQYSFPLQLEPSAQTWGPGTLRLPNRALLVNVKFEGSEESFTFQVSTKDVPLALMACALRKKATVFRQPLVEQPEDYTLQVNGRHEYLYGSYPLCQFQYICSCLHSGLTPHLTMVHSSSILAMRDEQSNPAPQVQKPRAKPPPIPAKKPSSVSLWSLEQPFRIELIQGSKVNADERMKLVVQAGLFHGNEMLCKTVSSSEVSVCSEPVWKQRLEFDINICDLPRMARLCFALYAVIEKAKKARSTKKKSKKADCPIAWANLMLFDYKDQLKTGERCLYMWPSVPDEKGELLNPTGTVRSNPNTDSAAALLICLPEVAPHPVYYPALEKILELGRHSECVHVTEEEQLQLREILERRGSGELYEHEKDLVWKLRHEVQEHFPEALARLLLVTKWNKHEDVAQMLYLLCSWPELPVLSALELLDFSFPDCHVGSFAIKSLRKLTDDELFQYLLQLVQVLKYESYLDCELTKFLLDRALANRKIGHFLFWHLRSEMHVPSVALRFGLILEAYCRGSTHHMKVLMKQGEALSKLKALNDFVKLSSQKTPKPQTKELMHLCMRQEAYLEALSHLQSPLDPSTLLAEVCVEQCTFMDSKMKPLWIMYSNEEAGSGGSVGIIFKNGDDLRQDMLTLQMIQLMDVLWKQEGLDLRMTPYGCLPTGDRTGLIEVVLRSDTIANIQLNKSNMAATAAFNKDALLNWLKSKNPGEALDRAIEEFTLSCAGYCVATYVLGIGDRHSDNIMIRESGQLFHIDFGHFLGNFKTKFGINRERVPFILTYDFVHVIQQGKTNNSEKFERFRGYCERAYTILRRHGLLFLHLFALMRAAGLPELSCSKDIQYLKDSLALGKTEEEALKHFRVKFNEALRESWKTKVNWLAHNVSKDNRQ
Sequence (P27986 whole entry partner): as the sequence (P27986 whole entry partner) above
REPORTED ENDPOINT: IC50 (nM)

>>> measured_result("COc1ncc(-c2ccc3ncc(C#CCO)n3c2)cc1NS(=O)(=O)c1ccc(F)cc1F")
1
>>> measured_result("COc1ncc(-c2ccc3ncc(C#CC(C)O)n3c2)cc1NS(=O)(=O)c1ccc(F)cc1F (stereo not drawn)")
3
>>> measured_result("COc1ncc(-c2ccc3ncc(C#N)n3n2)cc1NS(=O)(=O)c1ccc(F)cc1F")
3
>>> measured_result("CC#Cc1cnc2ccc(-c3cnc(OC)c(NS(=O)(=O)c4ccc(F)cc4F)c3)cn12")
2
>>> measured_result("COc1ncc(-c2ccc3ncc(C#CCO)n3n2)cc1NS(=O)(=O)c1ccc(F)cc1F")
2
>>> measured_result("COc1ncc(-c2ccc3ncc(C#N)n3c2)cc1NS(=O)(=O)c1ccc(F)cc1F")
4
